target: α1β3γ2 GABAA/BzR (Homo sapiens, UniProt P14867+P18507); experiment: Competition binding to HEK cell membranes, α1β3γ2; set-up: expressed in transfected cells; conditions: read-out: Ki α1
ATTRIBUTE_MEASURED: Ki (nM)

{"columns": ["COMPOUND", "ATTRIBUTE_MEASURED", "QUANTITATIVE_RESULT"],
 "data": [
  ["O=C(OCC(Cl)(Cl)Cl)c1ncn2c1CN=C(c1ccccc1)c1cc(Br)ccc1-2", "Ki", 88.6],
  ["CN1Cc2c(C(=O)OC(C)(C)C)ncn2-c2ccc(N3CCCC3)cc2C1=O", "Ki", 5.8],
  ["Oc1ccc2c(c1)[nH]c1c2ncc2[nH]c3ccccc3c21", "Ki", 7.04],
  ["C#Cc1ccc2c(c1)C(c1ccccc1F)=NCC(=O)N2C", "Ki", 3.9],
  ["O=C1CN=C(c2cccs2)c2cc(Br)ccc2N1", "Ki", 9.61],
  ["Cc1nnc2n1-c1ccc(C#C[Si](C)(C)C)cc1C(c1ccccc1F)=NC2", "Ki", 48.5],
  ["Cc1nnc2n1-c1ccc(Br)cc1C(c1ccccc1F)=NC2 [JYI-64 (C17H12N4FBr)]", "Ki", 0.305],
  ["C=Cc1ccc2c(c1)C(=O)N1CCC[C@H]1c1c(C(=O)OCC(F)(F)F)ncn1-2", "Ki", 91],
  ["c1ccc2c(c1)[nH]c1c2ncc2[nH]c3ccccc3c21", "Ki", 1.1]
]}
